biological target: Aβ1-42 (Homo sapiens); assay: Competition binding assay vs [^3H]PiB on synthetic amyloid peptide aggregates (Aβ1-42); conditions: Table 3; read-out: Affinity Ki, Aβ1-42
Sequence (P05067 672-713): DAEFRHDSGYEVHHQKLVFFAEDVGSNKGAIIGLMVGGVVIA
readout kind: Ki (nM)

Below: 2 molecules and their reported Ki.
{"structure notation": "Fc1ccc(-c2cc(-c3csc(-c4nc(-c5ccc6c(c5)OCO6)cs4)n3)on2)cc1", "uom": "nM", "assay result": 492}
{"structure notation": "CN(C)c1ccc(-c2csc(-c3nc(-c4ccc(F)nc4)cs3)n2)cc1", "uom": "nM", "assay result": 6}

[I] CN(C)c1ccc(-c2csc(-c3nc(-c4ccc(O)nc4)cs3)n2)cc1
[II] COc1sc(-c2csc(-c3nc(-c4ccc5c(c4)OCO5)cs3)n2)cc1F
In: Which value of Ki is greater, the one for I or the one for II ? To answer, give the label that identifies your chosen option.
Out: II
(II: 10 nM, I: 6 nM)

###

Reported Ki is given for each of the following molecules.
Biological target: human tau-441 recombinant aggregate (fibrils) (Homo sapiens)
Sequence (P10636 1-441 isoform P10636-8): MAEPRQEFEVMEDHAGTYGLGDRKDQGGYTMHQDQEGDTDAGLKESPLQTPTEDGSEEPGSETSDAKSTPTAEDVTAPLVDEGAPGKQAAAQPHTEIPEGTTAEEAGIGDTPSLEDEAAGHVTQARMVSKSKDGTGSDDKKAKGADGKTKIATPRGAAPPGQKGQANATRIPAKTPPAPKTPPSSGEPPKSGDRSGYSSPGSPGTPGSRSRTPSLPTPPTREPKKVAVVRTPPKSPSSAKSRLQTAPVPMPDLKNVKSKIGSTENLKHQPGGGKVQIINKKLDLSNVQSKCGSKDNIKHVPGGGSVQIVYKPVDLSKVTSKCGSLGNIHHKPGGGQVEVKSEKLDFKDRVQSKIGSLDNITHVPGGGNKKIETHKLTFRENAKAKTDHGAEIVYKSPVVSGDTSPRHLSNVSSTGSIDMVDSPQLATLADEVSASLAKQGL
Assay: Saturation and competition binding assay on tau aggregates (fibrils)
Conditions: Table 1; read-out: Affinity Ki, T
Procedure: Saturation and competition binding assays of compounds in this invention towards synthetic amyloid peptides, human tau-441 recombinant and human α-synuclein recombinant aggregate (fibrils) were performed similar to previously reported assays (Manook et al. 2012 and Yousefi et al. 2011) and adapted to the change of peptides and label. […] Filters were cut and retained radioactivity determined using an automatic NaI(TI) well-type γ-detector (Wallac 1480-011 Automatic Gamma Counter, PerkinElmer, USA). […]

Below: 5 molecules and their reported Ki.
{"structure notation": "CN(C)c1ccc(-c2csc(-c3nc(-c4ccc(O)cc4)cs3)n2)cc1", "Ki": "> 1000 nM"}
{"structure notation": "CCCCOc1ccc(-c2csc(-c3nc(-c4ccc(OC)c(F)c4)cs3)n2)cc1", "Ki": "> 1000 nM"}
{"structure notation": "CCOc1ccc(-c2csc(-c3nc(-c4ccc5c(c4)OCO5)cs3)n2)cc1", "Ki": "558 nM"}
{"structure notation": "CCOc1ccc(-c2csc(-c3nc(-c4ccc(OC)cc4)cs3)n2)cc1", "Ki": "> 1000 nM"}
{"structure notation": "COc1ccc(-c2csc(-c3nc(-c4ccc5c(c4)OCO5)cs3)n2)cc1F", "Ki": "> 1000 nM"}

With those in mind, consider the next molecule.
# molecule COc1ccc(-c2csc(-c3nc(-c4ccc5c(c4)OCO5)cs3)n2)cc1O ; its Ki = 12 nM

###

target: Aβ1-42 (Homo sapiens); experiment: Competition binding assay vs [^3H]PiB on synthetic amyloid peptide aggregates (Aβ1-42); settings: 100 nM; Table 1
readout kind: inhibition at 0.1 µM (%)

{"compound": "COc1ccc(-c2csc(-c3nc(-c4ccc5c(c4)OCO5)cs3)n2)cc1O [Compound 2]", "study target": "Aβ1-42 (Homo sapiens)", "uom": "%", "inhibition at 0.1 µM": 86}
{"compound": "COc1ccc(-c2csc(-c3nc(-c4ccc5c(c4)OCO5)cs3)n2)cc1F [Compound 3]", "study target": "Aβ1-42 (Homo sapiens)", "uom": "%", "inhibition at 0.1 µM": 45}
{"compound": "CCOc1ccc(-c2csc(-c3nc(-c4ccc5c(c4)OCO5)cs3)n2)cc1 [Compound 4]", "study target": "Aβ1-42 (Homo sapiens)", "uom": "%", "inhibition at 0.1 µM": 45}

[a] CCCCOc1ccc(-c2csc(-c3nc(-c4ccc(OC)c(F)c4)cs3)n2)cc1 [Compound 5]
[b] CN(C)c1ccc(-c2csc(-c3nc(-c4ccc(O)cc4)cs3)n2)cc1 [Compound 1]
[c] CCOc1ccc(-c2csc(-c3nc(-c4ccc(OC)cc4)cs3)n2)cc1 [Compound 6]
In: Parameters: sort_field (inhibition at 0.1 µM), sort_dir (desc). Record the ranking as a list of labels in the requested order.
Out: b, a, c

These data points were gathered from patent US10328163B2.
